measurement_target: AmpC β-lactamase (Escherichia coli, UniProt P00811)
Construct: made in house
Sequence (P00811 20-377): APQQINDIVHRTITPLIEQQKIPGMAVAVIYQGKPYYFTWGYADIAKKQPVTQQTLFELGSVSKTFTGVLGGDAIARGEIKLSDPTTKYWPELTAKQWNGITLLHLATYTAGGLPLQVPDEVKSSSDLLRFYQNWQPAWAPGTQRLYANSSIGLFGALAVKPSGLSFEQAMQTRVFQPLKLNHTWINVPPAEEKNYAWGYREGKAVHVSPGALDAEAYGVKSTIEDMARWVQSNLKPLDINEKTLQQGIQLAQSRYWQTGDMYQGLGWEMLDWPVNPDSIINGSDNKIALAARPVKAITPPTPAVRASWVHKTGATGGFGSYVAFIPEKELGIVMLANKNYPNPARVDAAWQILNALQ
assay_text: biochemical
Type: biochemical
condition_notes: Table 7; read-out: Ki Vs AmpC
pKi: −log10 of the molar value.
Classify as follows. Reported pKi greater than or equal to 7: y. Reported pKi below: n.

| compound_structure_string | answer_label |
| --- | --- |
| O=S(=O)(Cc1ccccc1)N[C@@H](Cc1ccccc1)B(O)O | n |
| CC1(C)OB(c2ccccc2NS(=O)(=O)Cc2ccccc2)OC1(C)C | n |
| O=S(=O)(NCB(O)O)c1ccc(-c2nnn[nH]2)cc1C(F)(F)F | y |
| CC1(C)OB(c2ccccc2NS(C)(=O)=O)OC1(C)C | n |
| O=[N+]([O-])c1cccc(CS(=O)(=O)NCB(O)O)c1 | n |
